Each recorded value in this set is attributed to paper PMC7162861.

Provide the reported inhibition at 10 µM of each item.
- Tested on: SK-OV-3
- protocol: NCI cytotoxicity screen, Ovarian Cancer panel
- Format: cell-based
- experimentalParameters: Homo sapiens, single dose 10 µM, negative = lethal, read-out: Percent growth inhibition

Form field: reported inhibition at 10 µM of "c1cn2cc(-c3ccsc3)nc(-c3ccc4c(c3)ncn4C3CCCCC3)c2n1" < 1%

Form field: reported inhibition at 10 µM of "c1ccc2c(-c3cn4ccnc4c(-c4ccc5c(c4)ncn5C4CCCCC4)n3)cccc2c1" < 1%

Form field: reported inhibition at 10 µM of "c1cn2cc(-c3ccc4c(c3)ncn4C3CCCCC3)nc(-c3ccc4c(c3)ncn4C3CCCCC3)c2n1" 11.8%

Form field: reported inhibition at 10 µM of "Brc1cn2ccnc2c(-c2ccc3c(c2)ncn3C2CCCCC2)n1" 6.59%

Form field: reported inhibition at 10 µM of "Fc1ccc(-c2cn3ccnc3c(-c3ccc4c(c3)ncn4C3CCCCC3)n2)cc1" < 1%

Form field: reported inhibition at 10 µM of "COc1ccc(-c2cn3ccnc3c(-c3ccc4c(c3)ncn4C3CCCCC3)n2)cc1" 5.37%

Form field: reported inhibition at 10 µM of "c1ccc(-c2cn3ccnc3c(-c3ccc4c(c3)ncn4C3CCCCC3)n2)cc1" < 1%

Form field: reported inhibition at 10 µM of "c1csc(-c2cn3ccnc3c(-c3ccc4c(c3)ncn4C3CCCCC3)n2)c1" < 1%

---

Provide the reported melting point of each item.

Form field: reported melting point of "Fc1ccc(-c2cn3ccnc3c(-c3ccc4c(c3)ncn4C3CCCCC3)n2)cc1" 187 to 189 °C

Form field: reported melting point of "O=Cc1ccc(-c2cn3ccnc3c(-c3ccc4c(c3)ncn4C3CCCCC3)n2)cc1" 201 to 203 °C

Form field: reported melting point of "Cc1cccc(-c2cn3ccnc3c(-c3ccc4c(c3)ncn4C3CCCCC3)n2)c1" 183 to 186 °C

Form field: reported melting point of "c1ccc2c(-c3cn4ccnc4c(-c4ccc5c(c4)ncn5C4CCCCC4)n3)cccc2c1" 199 to 202 °C

Form field: reported melting point of "COc1ccc(-c2cn3ccnc3c(-c3ccc4c(c3)ncn4C3CCCCC3)n2)cc1" 196 to 199 °C

Form field: reported melting point of "FC(F)(F)c1cccc(-c2cn3ccnc3c(-c3ccc4c(c3)ncn4C3CCCCC3)n2)c1" 196 to 199 °C

Form field: reported melting point of "c1cn2cc(-c3ccc4c(c3)ncn4C3CCCCC3)nc(-c3ccc4c(c3)ncn4C3CCCCC3)c2n1" 205 to 209 °C

Form field: reported melting point of "c1ccc(-c2cn3ccnc3c(-c3ccc4c(c3)ncn4C3CCCCC3)n2)cc1" 195 to 198 °C

---

- Test system: KM12
- protocol: NCI cytotoxicity screen, Colon Cancer panel
- Format: cell-based, human
- experimentalParameters: Homo sapiens, single dose 10 µM, negative = lethal, read-out: Percent growth inhibition
- Procedure: Cytotoxicity was performed at National Cancer Institute (NCI), Bethesda, USA as per their protocols.
Provide the reported inhibition at 10 µM of each item.
Record the value in %, omitting the unit from your answer.

Form field: reported inhibition at 10 µM of c1cn2cc(-c3ccsc3)nc(-c3ccc4c(c3)ncn4C3CCCCC3)c2n1 [Compound 14] 11.7

Form field: reported inhibition at 10 µM of c1ccc(-c2cn3ccnc3c(-c3ccc4c(c3)ncn4C3CCCCC3)n2)cc1 [Compound 9] 5.7

Form field: reported inhibition at 10 µM of Fc1ccc(-c2cn3ccnc3c(-c3ccc4c(c3)ncn4C3CCCCC3)n2)cc1 [Compound 13] 7.3

Form field: reported inhibition at 10 µM of c1ccc2c(-c3cn4ccnc4c(-c4ccc5c(c4)ncn5C4CCCCC4)n3)cccc2c1 [Compound 12] 8.69

Form field: reported inhibition at 10 µM of c1csc(-c2cn3ccnc3c(-c3ccc4c(c3)ncn4C3CCCCC3)n2)c1 [Compound 22] 6.84

Form field: reported inhibition at 10 µM of COc1ccc(-c2cn3ccnc3c(-c3ccc4c(c3)ncn4C3CCCCC3)n2)cc1 [Compound 10] 2.27

Form field: reported inhibition at 10 µM of c1cn2cc(-c3ccc4c(c3)ncn4C3CCCCC3)nc(-c3ccc4c(c3)ncn4C3CCCCC3)c2n1 [Compound 30] 56.2

---

- Test system: HOP-92
- protocol: NCI cytotoxicity screen, Non-Small Cell Lung Cancer panel
- Format: cell-based
- experimentalParameters: Homo sapiens, single dose 10 µM, negative = lethal, read-out: Percent growth inhibition
- Experimental: Cytotoxicity was performed at National Cancer Institute (NCI), Bethesda, USA as per their protocols.
Assign class by inhibition at 10 µM: not lower than 20% means met; lower than 20% means not met.

Entry "c1ccc(-c2cn3ccnc3c(-c3ccc4c(c3)ncn4C3CCCCC3)n2)cc1" : is its inhibition at 10 µM no less than 20%? not met

Entry "COc1ccc(-c2cn3ccnc3c(-c3ccc4c(c3)ncn4C3CCCCC3)n2)cc1" : is its inhibition at 10 µM no less than 20%? not met

Entry "Fc1ccc(-c2cn3ccnc3c(-c3ccc4c(c3)ncn4C3CCCCC3)n2)cc1" : is its inhibition at 10 µM no less than 20%? not met

Entry "c1csc(-c2cn3ccnc3c(-c3ccc4c(c3)ncn4C3CCCCC3)n2)c1" : is its inhibition at 10 µM no less than 20%? not met

Entry "Brc1cn2ccnc2c(-c2ccc3c(c2)ncn3C2CCCCC2)n1" : is its inhibition at 10 µM no less than 20%? met

Entry "c1cn2cc(-c3ccsc3)nc(-c3ccc4c(c3)ncn4C3CCCCC3)c2n1" : is its inhibition at 10 µM no less than 20%? met

---

- Tested on: BT-549
- protocol: NCI cytotoxicity screen, Breast Cancer panel
- Assay type: cell-based
- experimentalParameters: Homo sapiens, single dose 10 µM, negative = lethal, read-out: Percent growth inhibition
Provide the reported inhibition at 10 µM of each item.
Record the value in %, omitting the unit from your answer.

Form field: reported inhibition at 10 µM of "c1cn2cc(-c3ccc4c(c3)ncn4C3CCCCC3)nc(-c3ccc4c(c3)ncn4C3CCCCC3)c2n1" 5.9

Form field: reported inhibition at 10 µM of "c1ccc2c(-c3cn4ccnc4c(-c4ccc5c(c4)ncn5C4CCCCC4)n3)cccc2c1" 1.57

Form field: reported inhibition at 10 µM of "COc1ccc(-c2cn3ccnc3c(-c3ccc4c(c3)ncn4C3CCCCC3)n2)cc1" 8.55

---

- System: OVCAR-3
- protocol: NCI cytotoxicity screen, Ovarian Cancer panel
- Format: cell-based, human
- experimentalParameters: Homo sapiens; OVCAR-3; single dose 10 µM; negative = lethal; read-out: Percent growth inhibition
Provide the reported inhibition at 10 µM of each item.

Form field: reported inhibition at 10 µM of "Fc1ccc(-c2cn3ccnc3c(-c3ccc4c(c3)ncn4C3CCCCC3)n2)cc1" < 1%

Form field: reported inhibition at 10 µM of "c1ccc2c(-c3cn4ccnc4c(-c4ccc5c(c4)ncn5C4CCCCC4)n3)cccc2c1" 4.29%

Form field: reported inhibition at 10 µM of "c1csc(-c2cn3ccnc3c(-c3ccc4c(c3)ncn4C3CCCCC3)n2)c1" 0.91%

Form field: reported inhibition at 10 µM of "Brc1cn2ccnc2c(-c2ccc3c(c2)ncn3C2CCCCC2)n1" < 1%

Form field: reported inhibition at 10 µM of "c1cn2cc(-c3ccsc3)nc(-c3ccc4c(c3)ncn4C3CCCCC3)c2n1" < 1%

Form field: reported inhibition at 10 µM of "c1ccc(-c2cn3ccnc3c(-c3ccc4c(c3)ncn4C3CCCCC3)n2)cc1" < 1%

Form field: reported inhibition at 10 µM of "COc1ccc(-c2cn3ccnc3c(-c3ccc4c(c3)ncn4C3CCCCC3)n2)cc1" < 1%

Form field: reported inhibition at 10 µM of "c1cn2cc(-c3ccc4c(c3)ncn4C3CCCCC3)nc(-c3ccc4c(c3)ncn4C3CCCCC3)c2n1" < 1%

---

- Tested on: HT29
- protocol: NCI cytotoxicity screen, Colon Cancer panel
- Type: cell-based
- experimentalParameters: Homo sapiens, HT-29; HT29; single dose 10 µM; negative = lethal; read-out: Percent growth inhibition
Provide the reported inhibition at 10 µM of each item.
Record the value in %, omitting the unit from your answer.

Form field: reported inhibition at 10 µM of "Brc1cn2ccnc2c(-c2ccc3c(c2)ncn3C2CCCCC2)n1" 4.48

Form field: reported inhibition at 10 µM of "c1ccc(-c2cn3ccnc3c(-c3ccc4c(c3)ncn4C3CCCCC3)n2)cc1" 9.21

Form field: reported inhibition at 10 µM of "c1cn2cc(-c3ccc4c(c3)ncn4C3CCCCC3)nc(-c3ccc4c(c3)ncn4C3CCCCC3)c2n1" 28.1

Form field: reported inhibition at 10 µM of "c1cn2cc(-c3ccsc3)nc(-c3ccc4c(c3)ncn4C3CCCCC3)c2n1" 9.2

Form field: reported inhibition at 10 µM of "Fc1ccc(-c2cn3ccnc3c(-c3ccc4c(c3)ncn4C3CCCCC3)n2)cc1" 8.33

Form field: reported inhibition at 10 µM of "c1ccc2c(-c3cn4ccnc4c(-c4ccc5c(c4)ncn5C4CCCCC4)n3)cccc2c1" 16.5
